- System: Plasmodium berghei
- assay procedure: Luciferase/luciferin-expressing antifolate-resistant parasites were used to infect a culture of HepG2 cells that were pre-incubated with compounds. Infected hepatocytes emit light due to the luciferase reaction. Assay results are presented as the percent inhibition of light emission compared to control. […]
- Assay type: functional
- run parameters: sporozoite, FFLUC_HILL_SLOPE 38.3, FFLUC_R_SQUARED 0.217, HEPG2TOX_HILL_SLOPE 0.75, HEPG2TOX_R_SQUARED 0.479, read-out: LUCIFERASE INFECTION ASSAY - IC50
assay metric: IC50

> print(dat)
                                   molecule  experimental.target  assay.metric  assay.result
1  Cc1ccc(N2C(=N)C(c3nc4ccccc4s3)C(c3ccccc3)C2=O)cc1 (stereo unspecified)   Plasmodium berghei          IC50       > 10 µM
